# Tested on: MDR1
# test-protocol: MDCK-MDR1 permeability assay
# Format: in vitro ADME
# assay-conditions: dog, MDCK-MDR1, MDCK-MDR1 cells; Papp B→A divided by Papp A→B; 3 μM; 2 hours; read-out: Efflux ratio (ER)
# Method: The bidirectional permeability (Apical to Basal and Basal to Apical directions) of test compounds in MDCK-MIDR1 cells were evaluated using MDCK-MIDR1 cells seeded in Solvo PreadyPort™ MDCK 96-well plate. Once the plate was received from ReadyCell (Barcelona, Spain), it was treated as per PreadyPort™ user's manual. […] The efflux ratio (ER) was measured by dividing the Papp (basolateral to apical direction) by Papp (apical to basolateral direction). […]
Assignment: determine reported efflux ratio at 2 h, 3 μM for the given compounds.
Answers are plain numbers.

// solved cases for efflux ratio at 2 h, 3 μM follow
Cc1ccc2c(c1)[C@H]1CC[C@H](CC1)OCC1[C@@H](NS(C)(=O)=O)CCCN1CCO2 (stereo in doubt) ... 2
CC(C)(C)S(=O)(=O)N[C@H]1CCCN2C(=O)COc3ccccc3[C@H]3CC[C@H](CC3)OCC12 (stereo in doubt) ... 7.8

Next item in the queue.
Would you kindly share the measured efflux ratio at 2 h, 3 μM for O=C1COc2nnccc2[C@H]2CC[C@H](CC2)OCC2[C@@H](NS(=O)(=O)C3CC3)CCCN12 (stereo in doubt) ?
63

====

# test-protocol: Hepatocytes stability assay (human hepatocytes)
# Assay type: in vitro ADME
# assay-conditions: both sexes, human, cryopreserved hepatocytes, cryopreserved human hepatocytes (pool of 50 mixed gender); 1 μM test compound; 1×10^6 cell/mL; 37 degrees C; read-out: CLint (μL/min/million cells)
experimental-readout: hepatocyte CLint at 1 μM (µL/min/1e6 cells)
Numbers only, in µL/min/1e6 cells.

CN(C)CCS(=O)(=O)N[C@H]1CCCN2C(=O)COc3ccccc3[C@H]3CC[C@H](CC3)OCC12 (stereo in doubt) ... 20

Continue with the next compound.
Recorded hepatocyte CLint at 1 μM for CC(C)S(=O)(=O)N[C@H]1CCN2C(=O)COc3c(F)cc(F)cc3[C@H]3CC[C@H](CC3)OC[C@@H]12 , please?
15

====

# System: human hepatocytes
# test-protocol: Hepatocytes stability assay (human hepatocytes)
# Assay type: in vitro ADME
# assay-conditions: human hepatocytes; scaled hepatic clearance divided by liver blood flow (well-stirred model, fu assumed unity)
# Procedure: In vitro metabolic stability was assessed using cryopreserved hepatocytes from male Sprague Dawley rats and a pool of 50 mixed gender humans (BioIVT, Baltimore, MD). […] Data was calculated as percent remaining by assuming zero-minute time point peak area ratio (analyte/IS) as 100% and dividing remaining time point peak area ratios by zero-minute time point peak area ratio. […] From a plot of log (ln) peak area against time, the slope of the line was determined. […]
experimental-readout: Extraction Ratio (ER)
Give bare numbers.

Some entries whose results are on file:
CCS(=O)(=O)N[C@H]1CCCN2CCOc3ccccc3[C@H]3CC[C@H](CC3)OCC12 (stereo in doubt) ... 0.90
CC(C)(C)S(=O)(=O)N[C@H]1CCCN2C(=O)COc3ccccc3[C@H]3CC[C@H](CC3)OCC12 (stereo in doubt) ... 0.87
O=C1COc2ccccc2[C@H]2CC[C@H](CC2)OCC2[C@@H](NS(=O)(=O)C3CCC3)CCCN12 (stereo in doubt) ... 0.84
CC1(S(=O)(=O)N[C@H]2CCCN3C(=O)COc4ccccc4C4CCC(CC4)OC[C@@H]23)CC1 (stereo in doubt) ... 0.82

Now consider the entry below.
Lab note: need Extraction Ratio (ER) for CN(C)CCS(=O)(=O)N[C@H]1CCCN2C(=O)COc3ccccc3[C@H]3CC[C@H](CC3)OCC12 (stereo in doubt) on human hepatocytes, anyone have it?
0.75

====

Kindly state Extraction Ratio (ER) for each of the entries shown.
# System: human hepatocytes
# test-protocol: Hepatocytes stability assay (human hepatocytes)
# Type: in vitro ADME
# assay-conditions: human hepatocytes; scaled hepatic clearance divided by liver blood flow (well-stirred model, fu assumed unity)

Recorded Extraction Ratio (ER), per entry:
O=C1COc2nccnc2[C@H]2CC[C@H](CC2)OCC2[C@@H](NS(=O)(=O)C(F)(F)F)CCCN12 (stereo in doubt) ... <0.22
CS(=O)(=O)N[C@H]1CCCN2C(=O)COc3ccccc3[C@H]3CC[C@@H](OCC12)[C@H](O)C3 (stereo in doubt) ... <0.22
Cc1ccnc2c1[C@H]1CC[C@H](CC1)OCC1[C@@H](NS(=O)(=O)C3CC3)CCN1C(=O)CO2 (stereo in doubt) ... 0.78

Items follow; give Extraction Ratio (ER) for each.
1. C[C@H](C(F)(F)F)S(=O)(=O)N[C@H]1CCCN2C(=O)COc3ccccc3C3CCC(CC3)OC[C@@H]12 (stereo in doubt)
2. C[C@@H]1CCN2C(=O)COc3ccccc3[C@H]3CC[C@H](CC3)OCC2[C@H]1NS(C)(=O)=O (mixture of isomers)
3. CS(=O)(=O)N[C@H]1CCCN2C(=O)[C@H](CO)Oc3ccccc3[C@H]3CC[C@H](CC3)OCC12 (stereo in doubt)
4. Cc1cccc2c1[C@H]1CC[C@H](CC1)OCC1[C@@H](NS(=O)(=O)C3CC3)CCN1C(=O)CO2 (stereo in doubt)
5. CS(=O)(=O)N[C@H]1CCCN2C(=O)COc3ccc(O)cc3[C@H]3CC[C@H](CC3)OCC12 (stereo in doubt)
6. Cc1cnc2c(c1)[C@H]1CC[C@H](CC1)OCC1[C@@H](NS(=O)(=O)C(C)C)CCCN1C(=O)CO2 (stereo in doubt)
7. Cc1ccc2c(c1)C1CCC(CC1)OC[C@H]1[C@@H](NS(=O)(=O)C(C)C)CCCN1C(=O)CO2 (stereo in doubt)

1. 0.82
2. 0.71
3. 0.51
4. 0.87
5. 0.25
6. 0.52
7. 0.46

====

# Test system: MDR1
# test-protocol: MDCK-MDR1 permeability assay
# Type: in vitro ADME
# assay-conditions: dog, MDCK-MDR1, MDCK-MDR1 cells; test compound 3 μM; 2 hours at 37 degrees C; apical to basolateral
experimental-readout: Papp A→B at 2 h, 3 μM (×10⁻⁶ cm/s)
One number for each entry, in ×10⁻⁶ cm/s.

CC(C)S(=O)(=O)N[C@H]1CCN2C(=O)COc3c(F)cc(F)cc3[C@H]3CC[C@H](CC3)OC[C@@H]12 ... 6.4
O=C1COc2cccc(F)c2[C@H]2CC[C@H](CC2)OCC2[C@@H](NS(=O)(=O)C(F)(F)F)CCCN12 (stereo in doubt) ... 2

Fill blank: measured Papp A→B at 2 h, 3 μM of the compound Cc1ccnc2c1[C@H]1CC[C@H](CC1)OCC1[C@@H](NS(=O)(=O)C(C)C)CCN1C(=O)CO2 (stereo in doubt) is ____.
4.7

The reported numbers originate from patent US12006330B2.
